B1: TPR t1 (parent)
chain: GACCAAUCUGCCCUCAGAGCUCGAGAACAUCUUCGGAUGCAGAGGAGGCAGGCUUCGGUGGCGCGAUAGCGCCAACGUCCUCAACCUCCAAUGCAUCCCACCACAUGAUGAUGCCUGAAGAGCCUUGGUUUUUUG

Variants of: B1
test.name: polymerase ribozyme fitness, log enrichment relative to wild type (log ratio); higher = more active; in vitro selection for triplet polymerase activity
The label depends only on polymerase ribozyme fitness (log ratio): Y if it is at least -2, N if it is smaller.

In [3]: df
Out[3]:
                       mutation_descriptor  group
 0            G77A A111C A119U C123A U131C      N
 1                               C11U G71C      Y
 2     A5C C49G C53A U54G C98U U106A G128U      N
 3              A26G C70U C94G A103G G117C      N
 4                               A18U A66C      N
 5                           A5G U54G C88A      Y
 6                          C12U C49U C97U      Y
 7                               G36U C56A      Y
 8                    A6U G17U U112A G120A      N
 9                    C20G G35U A95C G117U      N
10  C11U G71A C98U A105U G110U G122U C124A      N
11                               C12U G63U      Y
12                               U78G A95C      Y
13          U55A G57A G61A G77A U87A A100C      Y
14                     G48U A50G G61A C89U      Y
15                               C12U G36U      Y
